Quick reference: Kd of the listed items.
biological target: BTK C481S (Homo sapiens, UniProt Q06187, C481S); construct: made in house; host or cells: transiently transfected HEK293 cells (unpurified extract); assay: KdELECT competition binding, mutant BTK C481S; settings: category by Kd for BTK C481S; read-out: potency for BTK C481S
Sequence (Q06187 whole entry C481S): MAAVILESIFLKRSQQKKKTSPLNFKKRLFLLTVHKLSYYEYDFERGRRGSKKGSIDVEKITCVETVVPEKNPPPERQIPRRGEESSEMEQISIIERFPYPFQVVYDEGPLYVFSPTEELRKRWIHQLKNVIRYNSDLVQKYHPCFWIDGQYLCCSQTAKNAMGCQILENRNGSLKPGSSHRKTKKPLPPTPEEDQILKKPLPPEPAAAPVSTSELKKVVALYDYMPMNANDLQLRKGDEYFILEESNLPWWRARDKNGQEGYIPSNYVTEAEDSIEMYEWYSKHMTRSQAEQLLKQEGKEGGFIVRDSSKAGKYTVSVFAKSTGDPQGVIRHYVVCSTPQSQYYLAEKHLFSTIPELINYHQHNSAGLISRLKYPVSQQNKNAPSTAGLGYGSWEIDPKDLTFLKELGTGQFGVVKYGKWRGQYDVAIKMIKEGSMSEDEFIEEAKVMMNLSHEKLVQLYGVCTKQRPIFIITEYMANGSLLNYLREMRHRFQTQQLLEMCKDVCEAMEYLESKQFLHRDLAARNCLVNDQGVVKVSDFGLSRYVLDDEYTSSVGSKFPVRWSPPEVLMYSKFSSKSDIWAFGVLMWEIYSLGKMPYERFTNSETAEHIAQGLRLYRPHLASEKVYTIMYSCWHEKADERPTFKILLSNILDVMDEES
REPORTED_PROPERTY: Kd

- ITEM_SMILES: "C=CC(=O)N1CCC[C@@H](c2ccc(C(N)=O)c3[nH]ccc23)C1"
  REPORTED_PROPERTY: "Kd"
  OBS_VALUE: "100 to 1000 nM"
- ITEM_SMILES: "C=CC(=O)Nc1cccc(Oc2nc(Nc3ccc(N4CCN(C)CC4)cc3)nc3ccoc23)c1"
  REPORTED_PROPERTY: "Kd"
  OBS_VALUE: "> 1000 nM"
- ITEM_SMILES: "COc1ccc(F)cc1C(=O)NCc1ccc(-c2nn([C@@H](C)C(F)(F)F)c(N)c2C(N)=O)cc1"
  REPORTED_PROPERTY: "Kd"
  OBS_VALUE: "< 1 nM"
